Test system: Phytophthora infestans (the causal agent of tomato late blight)
Test: whole plant or invertebrate
Assay type: in vivo
Details: Phytophthora infestans, read-out: TLB Obsd (observed effect, tomato late blight), component (b) alone, 40 ppm
Please go through the items and note down their pest or weed control at 40 ppm.
One number for each entry, in %.

{"COMPOUND": "O=C1c2ccccc2C(=O)N1SC(Cl)(Cl)Cl [folpet]", "ASSAYED_SYSTEM": "Phytophthora infestans (the causal agent of tomato late blight)", "pest or weed control at 40 ppm [%]": 46}
{"COMPOUND": "CCCOC(=O)NCCCN(C)C [propamocarb]", "ASSAYED_SYSTEM": "Phytophthora infestans (the causal agent of tomato late blight)", "pest or weed control at 40 ppm [%]": 0}
{"COMPOUND": "N#Cc1c(Cl)c(Cl)c(Cl)c(C#N)c1Cl [chlorothalonil]", "ASSAYED_SYSTEM": "Phytophthora infestans (the causal agent of tomato late blight)", "pest or weed control at 40 ppm [%]": 100}
{"COMPOUND": "O=[N+]([O-])c1cc(C(F)(F)F)c(Cl)c([N+](=O)[O-])c1Nc1ncc(C(F)(F)F)cc1Cl [fluazinam]", "ASSAYED_SYSTEM": "Phytophthora infestans (the causal agent of tomato late blight)", "pest or weed control at 40 ppm [%]": 99}
{"COMPOUND": "COC(=O)N(OC)c1ccccc1COc1ccn(-c2ccc(Cl)cc2)n1 [pyraclostrobin]", "ASSAYED_SYSTEM": "Phytophthora infestans (the causal agent of tomato late blight)", "pest or weed control at 40 ppm [%]": 94}
{"COMPOUND": "COc1ccc(C(=CC(=O)N2CCOCC2)c2ccc(Cl)cc2)cc1OC [dimethomorph]", "ASSAYED_SYSTEM": "Phytophthora infestans (the causal agent of tomato late blight)", "pest or weed control at 40 ppm [%]": 100}

Pending compound:
Input: Answer with the recorded pest or weed control at 40 ppm for the compound listed here: CCNC(=O)NC(=O)/C(C#N)=N/OC [cymoxanil]
Output: 100
